log10(TGI) reference
- System: UO-31 renal
- Run description: NCI tumour cell line growth inhibition, 48 h
Please interpret these as log10 of TGI where TGI is in µM.

# `CC(C)(C)CC(C)(C)c1ccc(OCCOCCSC(=N)N)cc1` with UO-31 renal: log10(TGI) is 0.59

# O=[N+]([O-])c1ccccc1C1N2CCCCC2[C@@H]2c3[nH]c4ccccc4c3CCN12 (some centres not stated) with UO-31 renal: log10(TGI) is 1.37

# C=C1C(C)C2C(Cc3ccccc3)NC(=O)C23C(OC(C)=O)/C=C/C(C)(O)CC(C)C/C=C/C3C1O (configuration not stated) with UO-31 renal: log10(TGI) is 0.04

# COc1cc2c(cc1OC)C(Cl)C(c1cc(OC)c(OC)c(OC)c1)=C2Cl (configuration not stated) with UO-31 renal: log10(TGI) is 1.43
